biological target: human TYR (Homo sapiens, UniProt P14679); construct: expressed in transfected cells; Triton X-100 lysate supernatant; assay: In vitro TYR catalytic activity assay, lysate of HEK293-TYR cells; assay type: biochemical; conditions: HEK293-TYR cell-free extract, L-tyrosine plus L-DOPA
Sequence (P14679 19-529): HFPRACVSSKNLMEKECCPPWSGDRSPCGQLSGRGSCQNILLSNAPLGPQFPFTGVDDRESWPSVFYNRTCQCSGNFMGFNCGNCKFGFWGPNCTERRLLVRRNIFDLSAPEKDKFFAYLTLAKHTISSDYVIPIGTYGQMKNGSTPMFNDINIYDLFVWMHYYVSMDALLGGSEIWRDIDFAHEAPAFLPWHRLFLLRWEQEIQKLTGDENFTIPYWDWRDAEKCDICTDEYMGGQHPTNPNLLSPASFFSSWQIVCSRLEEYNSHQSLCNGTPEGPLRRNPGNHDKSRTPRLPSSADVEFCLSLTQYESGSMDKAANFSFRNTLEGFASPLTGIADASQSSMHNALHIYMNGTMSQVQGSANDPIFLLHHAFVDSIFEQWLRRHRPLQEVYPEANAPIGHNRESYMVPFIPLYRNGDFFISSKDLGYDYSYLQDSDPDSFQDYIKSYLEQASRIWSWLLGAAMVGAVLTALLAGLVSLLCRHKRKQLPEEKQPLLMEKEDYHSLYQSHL
measured_endpoint: pIC50
Friendly reminder that pIC50 comes from taking -log10 of the concentration in mol/L.

State its pIC50 for this molecule: O=C(NO)c1ccc(CC(=O)N(CCO)c2ccccc2)cc1 5.96

----------
target: murine TYR (Mus musculus, UniProt P11344); construct: One is the protein extract of B16F10 cells stimulated by α-MSH and thus expresses a high amount of TYR; endogenous in cells; Triton X-100 lysate supernatant; assay: In vitro TYR catalytic activity assay, lysate of α-MSH-stimulated B16F10 cells; settings: B16F10 cell-free extract, L-tyrosine plus L-DOPA
Sequence (P11344 19-533): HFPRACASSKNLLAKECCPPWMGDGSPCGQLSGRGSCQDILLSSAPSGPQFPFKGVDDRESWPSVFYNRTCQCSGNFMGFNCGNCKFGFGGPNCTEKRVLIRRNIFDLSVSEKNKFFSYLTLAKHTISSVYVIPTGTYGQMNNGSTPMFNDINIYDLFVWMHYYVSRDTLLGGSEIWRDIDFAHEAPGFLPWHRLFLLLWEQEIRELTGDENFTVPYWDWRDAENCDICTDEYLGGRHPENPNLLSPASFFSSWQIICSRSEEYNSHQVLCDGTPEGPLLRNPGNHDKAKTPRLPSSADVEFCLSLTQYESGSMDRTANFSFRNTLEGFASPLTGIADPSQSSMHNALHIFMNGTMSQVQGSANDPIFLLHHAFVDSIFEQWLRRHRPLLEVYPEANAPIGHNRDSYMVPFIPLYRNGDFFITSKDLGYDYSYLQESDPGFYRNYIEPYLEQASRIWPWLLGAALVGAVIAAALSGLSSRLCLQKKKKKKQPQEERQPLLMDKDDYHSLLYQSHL
measured_endpoint: IC50 (µM)
Form entry: value (µM) — number only.

Send back murine TYR (Mus musculus, UniProt P11344) IC50 of O=C(NO)c1ccc(CC(=O)N(CCO)c2ccccc2)cc1 only. 1.5
